Assay: in vitro
Conditions: human, hela cells, % viability
Measured quantity: viability at 28.5 h, 10 µM (%)
Entry rule: numbers only, all in %.

Input: Give the value of viability at 28.5 h, 10 µM reported for the following: COc1ccc(Nc2cc(Cl)ccc2C(=O)NC(C)(C)CN2CCOCC2)cn1
Output: 97.1

Input: Give the value of viability at 28.5 h, 10 µM reported for the following: COc1ccc(CN(C)c2c(C)nc3c(OCCc4cccc(OC)c4)cccn23)cc1
Output: 109

Input: Give the value of viability at 28.5 h, 10 µM reported for the following: CN(C)CCN1CCN(c2nc(-c3occc3C=O)cnc2N)CC1
Output: 96.3

Input: Give the value of viability at 28.5 h, 10 µM reported for the following: CCN(CC)c1c(C)nc2ccc(C(=O)N3CCN(C)CC3)cn12
Output: 91.5

Input: Give the value of viability at 28.5 h, 10 µM reported for the following: O=C(c1csc(-c2ccccc2)n1)N1CCn2nc(C3CC3)cc2C1
Output: 95.9

====

Experiment: in vitro
Conditions: human, hela cells, % viability
Label key: rule met means viability at 28.5 h, 10 µM under 90%; rule not met means viability at 28.5 h, 10 µM of 90% or more.

Input: Please determine if COc1ccc(CCCC(=O)N2CCN(c3ccccc3OC)CC2)cc1OC is below 90% in terms of viability at 28.5 h, 10 µM.
Output: rule met

Input: Please determine if Cc1nc(C)n(C(C)CNC(=O)Cn2ccc3ccc(F)cc32)n1 (centres unmarked) is below 90% in terms of viability at 28.5 h, 10 µM.
Output: rule not met

Input: Please determine if O=C(N/N=C/c1c(Cl)cccc1Cl)c1cc(Br)ccc1O is below 90% in terms of viability at 28.5 h, 10 µM.
Output: rule not met

Input: Please determine if Clc1ccc(Cl)c(N/N=C(\c2ccccc2)c2cccnc2)c1 [CBK015932C] is below 90% in terms of viability at 28.5 h, 10 µM.
Output: rule not met

Input: Please determine if Cc1ccc2sc(NC(=O)c3ccc(Cl)s3)nc2c1C is below 90% in terms of viability at 28.5 h, 10 µM.
Output: rule not met

Input: Please determine if Cc1cc(N2CCCC(COc3ccccc3F)C2)nc(N)n1 (centres unmarked) is below 90% in terms of viability at 28.5 h, 10 µM.
Output: rule met

Input: Please determine if CC(C)c1nnc(C2(c3ccc(Br)cc3)CCOCC2)o1 is below 90% in terms of viability at 28.5 h, 10 µM.
Output: rule met

Input: Please determine if COc1ccc(/C=N/NC(=O)CCn2c3ccccc3c3ccccc32)cc1O is below 90% in terms of viability at 28.5 h, 10 µM.
Output: rule met

Input: Please determine if Cc1ccc2c(CC(=O)N3CCNCC3c3cnn(C)c3)coc2c1C (centres unmarked) [CBK304271C] is below 90% in terms of viability at 28.5 h, 10 µM.
Output: rule met

Input: Please determine if CCOC(=O)N1CCN(S(=O)(=O)c2ccc3c(c2)oc(=O)n3C)CC1 is below 90% in terms of viability at 28.5 h, 10 µM.
Output: rule not met

Input: Please determine if COc1ccc(OCCCCCN2CCC3(CC2)OCCc2c3[nH]c3ccccc23)cc1 [CBK113517T] is below 90% in terms of viability at 28.5 h, 10 µM.
Output: rule met

Input: Please determine if CCOc1cc(C(=S)N2CCOCC2)ccc1OCc1ccccc1 is below 90% in terms of viability at 28.5 h, 10 µM.
Output: rule not met

Input: Please determine if Cc1ccccc1C1NS(=O)(=O)NC1=N (centres unmarked) is below 90% in terms of viability at 28.5 h, 10 µM.
Output: rule not met

Input: Please determine if O=C(Cn1c(C(F)(F)F)nc2ccccc21)NCCN1CCOCC1 is below 90% in terms of viability at 28.5 h, 10 µM.
Output: rule not met

Input: Please determine if CCN(Cc1cccnc1)C(CC1CCCCC1)c1ccccc1 (centres unmarked) is below 90% in terms of viability at 28.5 h, 10 µM.
Output: rule not met

Input: Please determine if CN(CC1CCCOC1)C(=O)c1ncsc1Nc1ccccc1 (centres unmarked) is below 90% in terms of viability at 28.5 h, 10 µM.
Output: rule not met
